# Tested on: up to 32 different microorganisms
# run.description: in vitro antibacterial activity (MIC), agar dilution on Brain Heart Infusion (BHI) agar with Steers replicator
# Type: cell-based
# condition.description: Streptococcus Pneumonia GYR 1171 (code YY); unit assumed
# Experimental: Representative compounds of the present invention were assayed in vitro for antibacterial activity as follows: Twelve petri dishes containing successive aqueous dilutions of the test compound mixed with 10 mL of sterilized Brain Heart Infusion (BHI) agar (Difco 0148-01-5) were prepared. Each plate was inoculated with 1:100 (or 1:10 for slow-growing strains, such as Micrococcus and Streptococcus) dilutions of up to 32 different microorganisms, using a Steers replicator block. […]
Recorded MIC for the following compounds
Report the value in µg/mL with no unit label.

CC[C@H]1OC(=O)[C@H](C)C(=O)[C@H](C)[C@@H](O[C@@H]2O[C@H](C)C[C@H](N(C)C)[C@H]2O)[C@@](C)(OCC=Cc2ccccc2)C[C@@H](C)C(=O)[C@H](C)[C@H]2NC(=O)O[C@@]21C
0.03
CC[C@H]1OC(=O)[C@H](C)C(=O)[C@H](C)[C@@H](O[C@@H]2O[C@H](C)C[C@H](N(C)C)[C@H]2O)[C@@](C)(OCC=Cc2cnc3ccccc3c2)C[C@@H](C)C(=O)[C@H](C)[C@H]2N(C)C(=O)O[C@]12C
0.03

As a next step, examine the compound that follows.
stdin: For the compound C=CCOC1(C)CC(C)C(=O)C(C)C2N(CC=C)C(=O)OC2(C)C(CC)OC(=O)C(C)C(=O)C(C)C1OC1OC(C)CC(N(C)C)C1O (stereo not drawn) , what MIC is on record?
stdout: 2
